Exercise: for every item that follows, state its recorded IC50, Eotaxin-1 assay, Average.
target: IL-13 (human IL-13, preparation not specified) (human, UniProt P35225 35-146, limits assumed); test: cell-based or functional assay
Sequence (P35225 35-146 limits assumed): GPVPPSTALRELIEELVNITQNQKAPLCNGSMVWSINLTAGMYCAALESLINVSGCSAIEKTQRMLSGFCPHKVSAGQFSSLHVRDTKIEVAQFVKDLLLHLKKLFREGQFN
API: value field is a number in nM; no unit string.

Given item antibody 11.18.3 (antibody, V domains shown) VH: QVQLVESGGGVVQPGRSLRLSCVASGFTFSSYDMHWVRQAPGKGLEWVAVIWYDGSNKYYADSVQGRFTISRDNSKNTLYLQMNSLRAEDTAVYYCTSEDSSGWYDGWFDPWGQGTLVTVSS VL: DIQMTQSPSSLSASVGDRVTITCRASQGISNYLAWYQQKPGKVPKVLIYAASTLQSGVPSRFSGSGSGTDFTLTISSLQPEDVATYYCQKYNSAPFTFGPGTKVDIK , the value recorded as its IC50, Eotaxin-1 assay, Average is 0.245

Given item antibody 643 (antibody, V domains shown, also called Ab 643; mAb 643) VH: EVQLVESGGGLVKPGGSLRLSCAASGFTFSNAWMSWVRQAPGKGLEWVGRIRSEIDGGTTNYAAPVKGRFTISRDDSKNTLYLQMNSLRTEDTAVYYCATDQVGAYYGDYYGMDVWGQGTLVTVSS VL: SYELTQPPSVSVSPGQTARITCSGDALPEKYAYWYQQKSGQAPVLVIYEDSKRPSGIPERFSGSSSGTMATLTISGAQVEDEADYYCHSTDSSGNHGVFGGGTKLTVL , the value recorded as its IC50, Eotaxin-1 assay, Average is 0.035

Given item antibody 353 (antibody, V domains shown) VH: QVQLQESGPGLVKPSETLSLTCTVSGGSISTYYWSWIRQPPGKGLEWIGYIYYSGSTNYNPSLKSRVTISVDTSKNQFSLKLSSVTAADTAVYYCARDGGHYWDDAFDIWGQGTMVTVSS VL: DIQMTQSPSSLSASVGDRVTITCRASQGIRNDLDWYQQKPGKAPKRLIYDASSLQSGVPSRFSGSGSGTEFTLTISSLQPEDFATYYCLQHDSYPFTFGPGTKVDIK , the value recorded as its IC50, Eotaxin-1 assay, Average is 0.101
